- testedSystem: human GALR3 (Homo sapiens, UniProt O60755)
- Construct: host or cells: HEK293 cells stably expressing Gαqi
- Sequence (O60755 whole entry): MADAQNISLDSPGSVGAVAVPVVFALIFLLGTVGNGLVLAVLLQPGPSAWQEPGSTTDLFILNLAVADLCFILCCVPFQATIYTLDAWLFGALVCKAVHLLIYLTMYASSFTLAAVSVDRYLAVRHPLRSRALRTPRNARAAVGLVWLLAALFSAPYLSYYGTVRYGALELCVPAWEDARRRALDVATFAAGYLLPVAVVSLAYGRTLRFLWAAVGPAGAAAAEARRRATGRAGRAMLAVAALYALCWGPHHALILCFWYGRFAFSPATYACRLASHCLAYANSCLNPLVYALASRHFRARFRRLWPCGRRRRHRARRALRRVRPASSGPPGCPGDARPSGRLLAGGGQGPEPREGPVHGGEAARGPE
- method: SRE-luc reporter assay, GALR3
- Format: cell-based
- appliedConditions: HEK293-Gqi cells transfected with SRE-luc and human GALR3; 6 h ligand treatment; mean ± S.E. of at least three independent experiments; NM = not measurable; read-out: GALR3 EC50
Where a SMILES comes first, the peptide text is derived from it. [ ]: non-standard residue; d: D form. pGlu = O=C1CC[C@@H](C(=O)O)N1
endpoint: EC50 (nM)
Your answer is read as nM, so omit the unit and give the number.

// recorded EC50 for CSCC[C@H](NC(=O)[C@H](C)NC(=O)[C@H](CCC(N)=O)NC(=O)[C@@H]1CCCN1C(=O)[C@@H](NC(=O)[C@H](Cc1c[nH]c2ccccc12)NC(=O)[C@@H]1CCC(=O)N1)[C@@H](C)O)C(=O)N[C@@H](CC(C)C)C(=O)N[C@@H](Cc1ccc(O)cc1)C(=O)N[C@@H](CC(C)C)C(=O)N[C@@H](CCCCN)C(=O)NCC(=O)N[C@@H](C)C(=O)N[C@@H](CCC(N)=O)C(N)=O [pQ1] ([pGlu]WTPQAMLYLKGAQ-NH2) : 61.7

----------
Here, each record is paired with measured EC50 data.
- testedSystem: human GALR2 (Homo sapiens)
- Construct: host or cells: HEK293 cells stably expressing Gαqi
- method: SRE-luc reporter assay, GALR2
- Assay type: cell-based
- appliedConditions: HEK293-Gqi cells transfected with SRE-luc and human GALR2; 6 h ligand treatment; mean ± S.E. of at least three independent experiments; NM = not measurable; read-out: GALR2 EC50
Your answer is read as nM, so omit the unit and give the number.

// recorded EC50 for "CSCC[C@H](NC(=O)[C@H](C)NC(=O)[C@H](CCC(N)=O)NC(=O)[C@@H]1CCCN1C(=O)[C@@H](NC(=O)[C@H](Cc1c[nH]c2ccccc12)NC(=O)[C@@H](N)CC(N)=O)[C@@H](C)O)C(=O)N[C@@H](CC(C)C)C(=O)N[C@@H](Cc1ccc(O)cc1)C(=O)N[C@@H](CC(C)C)C(=O)N[C@@H](CCCCN)C(=O)NCC(=O)N[C@@H](C)C(=O)N[C@H](CCC(N)=O)C(N)=O" : 77.6

// recorded EC50 for "CSCC[C@H](NC(=O)[C@H](C)NC(=O)[C@H](CCC(N)=O)NC(=O)[C@@H]1CCCN1C(=O)[C@@H](NC(=O)[C@H](Cc1c[nH]c2ccccc12)NC(=O)[C@H](CC(N)=O)NC(C)=O)[C@@H](C)O)C(=O)N[C@@H](CC(C)C)C(=O)N[C@@H](Cc1ccc(O)cc1)C(=O)N[C@@H](CC(C)C)C(=O)N[C@@H](CCCCN)C(=O)NCC(=O)N[C@@H](C)C(=O)N[C@@H](CCC(N)=O)C(N)=O" : 58.9

----------
- testedSystem: human GALR2 (Homo sapiens, UniProt O43603)
- Construct: host or cells: HEK293 cells stably expressing Gαqi
- Sequence (O43603 whole entry): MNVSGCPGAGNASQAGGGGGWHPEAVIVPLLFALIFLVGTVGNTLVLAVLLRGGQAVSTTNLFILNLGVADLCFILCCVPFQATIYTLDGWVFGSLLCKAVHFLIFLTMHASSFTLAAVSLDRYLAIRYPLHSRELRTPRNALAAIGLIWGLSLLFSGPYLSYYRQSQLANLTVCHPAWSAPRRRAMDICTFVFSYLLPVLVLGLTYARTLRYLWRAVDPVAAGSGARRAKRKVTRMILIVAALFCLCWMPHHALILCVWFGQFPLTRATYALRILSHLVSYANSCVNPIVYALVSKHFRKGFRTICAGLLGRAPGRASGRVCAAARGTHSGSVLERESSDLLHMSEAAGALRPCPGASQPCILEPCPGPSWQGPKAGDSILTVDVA
- method: SRE-luc reporter assay, GALR2;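 also: luciferase activity read in cell lysates after exposure to rising peptide concentrations, EC50 being the agonist level giving half-maximal stimulation from a sigmoidal nonlinear regression fit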
- Assay type: cell-based
- appliedConditions: HEK293-Gqi cells transfected with SRE-luc and human GALR2; 6 h ligand treatment; mean ± S.E. of at least three independent experiments; NM = not measurable; read-out: GALR2 EC50
Where no end group is shown, it is not given here.
endpoint: pEC50
Quick note: pEC50 means taking -log10 of the concentration in moles per liter.

These solved cases illustrate the format of a correct answer.
// recorded pEC50 for NWTPQAMLYLLGAQ-NH2 [L11] : 7.44

// recorded pEC50 for NWTPQAALYLKGAQ-NH2 [A7] : 7.41

// recorded pEC50 for NWTLQAMLYLKGAQ-NH2 [L4] : 7.23

// recorded pEC50 for NWTPQAMLYLKGPQ-NH2 [P13] : 7.41

// recorded pEC50 for NWTPNAALYLFGAH-NH2 [N5A7F11H14] : 7.26

// recorded pEC50 for NWTPNAALYLFGPQ-NH2 [N5A7F11P13(Qu)] : 7.26

***
// recorded pEC50 for NWTPNAALYLFGAQ-NH2 [N5A7F11] : 6.97

// recorded pEC50 for NWTPNAMLYLKGAQ-NH2 [N5] : 7.21

// recorded pEC50 for NWTPQAMLYLKGAH-NH2 [Ha14] : 7.27

// recorded pEC50 for NWTPQAMGYLKGAQ-NH2 [G8] : 5.99

// recorded pEC50 for GWTPQAMLYLKGAQ-NH2 [G1] : 7.44

// recorded pEC50 for NWTPQAALYLFGAQ-NH2 [A7F11] : 6.84

----------
- testedSystem: human GALR3 (Homo sapiens, UniProt O60755)
- Construct: host or cells: HEK293 cells stably expressing Gαqi
- method: SRE-luc reporter assay, GALR3;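 also: luciferase activity read in cell lysates across rising peptide concentrations, EC50 being the agonist concentration giving half-maximal stimulation from a sigmoidal nonlinear fit, Gαqi routing Gi-coupled receptor signaling through Gq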
- Format: cell-based
- appliedConditions: HEK293-Gqi cells transfected with SRE-luc and human GALR3; 6 h ligand treatment; mean ± S.E. of at least three independent experiments; NM = not measurable; read-out: GALR3 EC50
Where no end group is shown, it is not given here.
Using EC50 as the sorting value, the categories are lower level = under 100 nM, middle level = from 100 nM up to 500 nM, upper level = 500 nM and over

# example entries with known answers
Query block: Lab note: sort NWTPQAMLYLKGPQ-NH2 [P13] into the matching EC50 band.
Result block: middle level

Query block: Lab note: sort NWTPQAMLYLKGAH-NH2 [Ha14] into the matching EC50 band.
Result block: lower level

Query block: Lab note: sort NWTPQAMLYLLGAQ-NH2 [L11] into the matching EC50 band.
Result block: middle level

Query block: Lab note: sort GWTPQAMLYLKGAQ-NH2 [G1] into the matching EC50 band.
Result block: lower level

Query block: Lab note: sort NWTPNAALYLFGAQ-NH2 [N5A7F11] into the matching EC50 band.
Result block: upper level

***
Query block: Lab note: sort NWTLQAMLYLKGAQ-NH2 [L4] into the matching EC50 band.
Result block: middle level

Query block: Lab note: sort NWTPQAALYLFGAQ-NH2 [A7F11] into the matching EC50 band.
Result block: upper level

Query block: Lab note: sort NWTPNAALYLFGPQ-NH2 [N5A7F11P13(Qu)] into the matching EC50 band.
Result block: upper level

Query block: Lab note: sort NWTPQAMGYLKGAQ-NH2 [G8] into the matching EC50 band.
Result block: upper level

Query block: Lab note: sort NWTPNAALYLFGAH-NH2 [N5A7F11H14] into the matching EC50 band.
Result block: upper level

Query block: Lab note: sort NWTPQAALYLKGAQ-NH2 [A7] into the matching EC50 band.
Result block: middle level

----------
Here, each record is paired with measured Half-life activity (h) in Human Serum data.
- method: Peptide stability in human serum by residual IP3 production
- Type: in vitro ADME
- appliedConditions: peptide 1 μM in 100% human serum, 37 °C, 0, 3, 6, 12, 24, 48, 72 h; residual activity read as IP3 production ([3H]-inositol) in HEK293 cells expressing GALR2; mean ± S.E., at least three independent experiments
Marks after values point to notes of the source that are not given here. Where a SMILES comes first, the peptide text is derived from it. The star is where a group is joined. Fmoc = O=C(OCC1c2ccccc2-c2ccccc21)*

// recorded Half-life activity (h) in Human Serum for CC(C)C[C@H](NC(=O)[C@H](C)NC(=O)[C@H](C)NC(=O)[C@H](CC(N)=O)NC(=O)[C@@H]1CCCN1C(=O)[C@@H](NC(=O)[C@H](Cc1c[nH]c2ccccc12)NC(=O)[C@H](CC(N)=O)NC(=O)OCC1c2ccccc2-c2ccccc21)[C@@H](C)O)C(=O)N[C@@H](Cc1ccc(O)cc1)C(=O)N[C@@H](CC(C)C)C(=O)N[C@@H](Cc1ccccc1)C(=O)NCC(=O)N1CCC[C@H]1C(=O)N[C@@H](CCC(N)=O)C(N)=O [Fmoc-Qu] (Fmoc-NWTPNAALYLFGPQ-NH2) : 4.9 ± 0.1 ^a h

----------
- method: Peptide stability in human serum by residual IP3 production
- Assay type: in vitro ADME
- appliedConditions: peptide 1 μM in 100% human serum, 37 °C, 0, 3, 6, 12, 24, 48, 72 h; residual activity read as IP3 production ([3H]-inositol) in HEK293 cells expressing GALR2; mean ± S.E., at least three independent experiments
Marks after values point to notes of the source that are not given here. Where a SMILES comes first, the peptide text is derived from it. [ ]: non-standard residue; d: D form. The star is where a group is joined. Fmoc = O=C(OCC1c2ccccc2-c2ccccc21)*
Here, each record is paired with measured Half-life activity (h) in Human Serum data.

These solved cases illustrate the format of a correct answer.
// recorded Half-life activity (h) in Human Serum for CC(C)C[C@H](NC(=O)[C@H](C)NC(=O)[C@H](C)NC(=O)[C@H](CC(N)=O)NC(=O)[C@@H]1CCCN1C(=O)[C@@H](NC(=O)[C@H](Cc1c[nH]c2ccccc12)NC(=O)[C@H](N)CC(N)=O)[C@@H](C)O)C(=O)N[C@@H](Cc1ccc(O)cc1)C(=O)N[C@@H](CC(C)C)C(=O)N[C@@H](Cc1ccccc1)C(=O)NCC(=O)N1CCC[C@H]1C(=O)N[C@@H](CCC(N)=O)C(N)=O [dN1-Qu] (H-[dN]WTPNAALYLFGPQ-NH2) : 2.9 ± 0.1 ^a h

// recorded Half-life activity (h) in Human Serum for CC(C)C[C@H](NC(=O)[C@H](C)NC(=O)[C@H](C)NC(=O)[C@H](CC(N)=O)NC(=O)[C@@H](C)NC(=O)[C@@H](NC(=O)[C@H](Cc1c[nH]c2ccccc12)NC(=O)[C@H](CC(N)=O)NC(=O)OCC1c2ccccc2-c2ccccc21)[C@@H](C)O)C(=O)N[C@@H](Cc1ccc(O)cc1)C(=O)N[C@@H](CC(C)C)C(=O)N[C@@H](Cc1ccccc1)C(=O)NCC(=O)N1CCC[C@H]1C(=O)N[C@H](CCC(N)=O)C(N)=O [Fmoc-Qu-dA4-dQ14] (Fmoc-NWT[dA]NAALYLFGP[dQ]-NH2) : 8.8 ± 0.2 ^a h

***
// recorded Half-life activity (h) in Human Serum for CC(C)C[C@H](NC(=O)[C@H](C)NC(=O)[C@H](C)NC(=O)[C@H](CC(N)=O)NC(=O)[C@@H]1CCCN1C(=O)[C@@H](NC(=O)[C@H](Cc1c[nH]c2ccccc12)NC(=O)[C@H](CC(N)=O)NC(=O)OCC1c2ccccc2-c2ccccc21)[C@@H](C)O)C(=O)N[C@@H](Cc1ccc(O)cc1)C(=O)N[C@@H](CC(C)C)C(=O)N[C@@H](Cc1ccccc1)C(=O)NCC(=O)N1CCC[C@H]1C(=O)N[C@H](CCC(N)=O)C(N)=O [Fmoc-Qu-dQ14] (Fmoc-NWTPNAALYLFGP[dQ]-NH2) : 6.3 ± 0.1 ^a h
